# System: HBsAg secretion
# assay-comment: microbe, parasite or virus in culture
# Type: cell-based, Hepatitis B virus
# measurement-setup: HepG 2.2.15 cells; means of two independent experiments; read-out: HBsAg IC50
# Description: Based on our previous description, inhibitory activity on HBV (HBsAg, HBeAg and HBV DNA) was evaluated. […] Cytotoxicity was assayed with a modified 3-(4,5-dimethylthiazole-2-yl)-2,5-diphenyltetrazolium bromide (MTT) method (Gibco Invitrogen, Carlsbad, CA, USA). The anti-HBV antigen secretion activities were determined by the enzyme linked immunosorbent assay (ELISA; Autobio Diagnostics Co., Ltd, China). A real-time PCR assay was applied to detect the inhibitory activity on HBV DNA replication.
pIC50: −log10 of the molar value.
Collected pIC50 values appear next to each entry.

The examples below pair each entry with its known result.
molecule: COCC(=O)OC1CC2(C)C(CC(O)C3C(C4(C)CCCC(C)(C)O4)CCC32C)C2(C)CCC(OC(=O)COC)C(C)(C)C12 (stereo not drawn)
pIC50: < 2.82
--
molecule: CC(=O)OC1CC2(C)C(CC(O)C3C(C4(C)CCCC(C)(C)O4)CCC32C)C2(C)CCC(OC(C)=O)C(C)(C)C12 (stereo not drawn)
pIC50: < 2.68

// query Tell us which pIC50 value is on record for CC1(C)CCC[C@](C)([C@H]2CC[C@]3(C)[C@@H]2[C@H](O)C[C@@H]2[C@@]4(C)CC[C@H](OC(=O)c5ccccc5)C(C)(C)[C@@H]4CC[C@]23C)O1
// result < 2.70

###

Listing of entries alongside the reported IC50.
# Tested on: HBeAg secretion
# assay-comment: microbe, parasite or virus in culture
# Format: cell-based, Hepatitis B virus
# measurement-setup: HepG 2.2.15 cells; means of two independent experiments; read-out: HBeAg IC50

molecule: CC1(C)CCC[C@](C)([C@H]2CC[C@]3(C)[C@@H]2[C@H](O)C[C@@H]2[C@@]4(C)CC[C@H](OC(=O)c5cc(O)c(O)c(O)c5)C(C)(C)[C@@H]4CC[C@]23C)O1
IC50: > 1440 µM
--
molecule: CC1(C)CCC[C@](C)([C@H]2CC[C@]3(C)[C@@H]2[C@H](O)C[C@@H]2[C@@]4(C)CC[C@H](OC(=O)c5ccccc5)C(C)(C)[C@@H]4CC[C@]23C)O1
IC50: > 2000 µM

As a next step, examine the molecule that follows.
// query Please report IC50 for the following molecule: CC(=O)OC1CC2(C)C(CC(O)C3C(C4(C)CCCC(C)(C)O4)CCC32C)C2(C)CCC(OC(C)=O)C(C)(C)C12 (stereo not drawn)
// result > 2100 µM

Reference source for all entries: paper PMC4050313
